These entries and their values trace back to patent US10004701B2.

# Test system: E. coli
# experiment: AK assay 384-well format, Prestwick library screening
# Assay type: cell-based, Escherichia coli
# cond: Escherichia coli, 3 h; planktonic E. coli; 50 μM final drug concentration; cutoff for positive-scoring molecules 3-fold increase; read-out: AK-based Prestwick Library Screening Results, E. coli (increase in extracellular AK activity)
Counter-ions that a name gives are not always drawn.
As shown below, each of these molecules has a reported fold induction at 50 µM value.
Please give only the number in your answer, with no unit.

Solved entries (count: 2):
{"molecule": "O=C1CCc2cc(OCCCCc3nnnn3C3CCCCC3)ccc2N1", "experimentalEndpoint": "fold induction at 50 µM", "number": 0.9}
{"molecule": "C=CC(N)CCC(=O)O (stereo not drawn)", "experimentalEndpoint": "fold induction at 50 µM", "number": 1}

Moving on to another molecule below.
// fetch fold induction at 50 µM given entry CC[C@H]1CN2CCc3cc(OC)c(OC)cc3[C@@H]2C[C@@H]1C[C@H]1NCCc2cc(OC)c(OC)cc21 [Emetine dihydrochloride]
0.5
